- experimental-target: T1, Sulfotyrosine CCR2b biotin peptide (human)
- T1 construct: also called CCR2b peptide
- T1 peptide: TTFFD[sY]D[sY]GAPSHGGK(Biotin)
- assay-remarks: ELISA, 50 nM mAb
Non-standard residues stand in square brackets, D forms with d. No end group written: not given here. *: point of attachment. Biotin = O=C1N[C@H]2[C@H](CS[C@H]2CCCCC(=O)*)N1; sY = N[C@@H](Cc1ccc(OS(=O)(=O)O)cc1)C(=O)O
observable: binding normalized to PSGL-1
Kindly provide the number alone.

binder	binding normalized to PSGL-1
06A07 (antibody, IgG4, V domains shown) VH: QVQLVQSGPELKNPGASVKVSCKASGYSFTNFYINWVRQAPGRGLEWVGWISPNNGNTHYARNLQGRVTMTTDTSTNTAYLELKNLRSDDTAIYFCGRSVSMGYWGQGTLVTVSS VL: LPVLTQPPSVSKGLRQTATLTCTGNSKNVGNQGAAWLQQHQGQPPKLLSYRNNNRPSGISERFSASRSGNTASLTITGLQPEDEADYYCSAWDSSLSAQVFGGGTKLTVL	0.43
02G01 (antibody, IgG4, V domains shown) VH: EVQLVQSGAEVKKPGASVKVSCKASGYTFTSYGISWVRQAPGQGLEWMGWISAYNGNTNYAQKLQGRVTMTTDTSTSTAYMELRSLRSDDTAVYYCARVTRLPGGGYAFDIWGQGTMVTVSL VL: QSVLTQPPSASGTPGQRITISCSGSTSNIGNKHVYWYQQFPGAAPKLLIHNTNKRPSGVPDRFSGSKSGTSASLAISGLQSDDEADYYCAAWDGSLSAWVFGGGTKLTVL	0.78
05D01 (antibody, V domains shown) VH: QVTLRESGGALVQPGGSLRLSCAASGFPLRSNAMTWVRQAPGKGLEWVSDIRGNGASTYYADSVKGRFTISRDDSNNILFLQMNSLRAEDTAVYYCVGHGSSSYWGQGTLVTVSS VL: DVVMTQSPLSLPVTLGQPASISCRSSQSLVYRDGNIYLNWFQQRPGQSPRRLIYKVSNRDSGVPDRFSGSGSGTDFTLKISRVEAEDVGVYYCMQLTHWPPGFAQGTKLEIK	0.17

Continue with the next binder.
*Q* Form field: reported binding normalized to PSGL-1 of 06B02 (antibody, IgG4, V domains shown) VH: QVQLVESGPGLVKPSETLSLTCTVSGVSVSSYYWTWVRQSPGKGLEWIGHVHHSGISNYNPSLKSRVVMSVDTSKNYFSLKLRSVTAADTAVYYCARGGPRISPTNWGQGTLVTVSS VL: QPVLTQPPSVSKALRQTATLTCTGNSNNVGYQGATWLRQHQGHPPRLLSYRNNNRPSGISERFSASRSGNTATLTITGLQPDDEADYYCAAWDSSLSAWVFGGGTKLTVL
*A* 0.61
